target_system: OATP2B1 (Homo sapiens)
Sequence (O94956 1-709): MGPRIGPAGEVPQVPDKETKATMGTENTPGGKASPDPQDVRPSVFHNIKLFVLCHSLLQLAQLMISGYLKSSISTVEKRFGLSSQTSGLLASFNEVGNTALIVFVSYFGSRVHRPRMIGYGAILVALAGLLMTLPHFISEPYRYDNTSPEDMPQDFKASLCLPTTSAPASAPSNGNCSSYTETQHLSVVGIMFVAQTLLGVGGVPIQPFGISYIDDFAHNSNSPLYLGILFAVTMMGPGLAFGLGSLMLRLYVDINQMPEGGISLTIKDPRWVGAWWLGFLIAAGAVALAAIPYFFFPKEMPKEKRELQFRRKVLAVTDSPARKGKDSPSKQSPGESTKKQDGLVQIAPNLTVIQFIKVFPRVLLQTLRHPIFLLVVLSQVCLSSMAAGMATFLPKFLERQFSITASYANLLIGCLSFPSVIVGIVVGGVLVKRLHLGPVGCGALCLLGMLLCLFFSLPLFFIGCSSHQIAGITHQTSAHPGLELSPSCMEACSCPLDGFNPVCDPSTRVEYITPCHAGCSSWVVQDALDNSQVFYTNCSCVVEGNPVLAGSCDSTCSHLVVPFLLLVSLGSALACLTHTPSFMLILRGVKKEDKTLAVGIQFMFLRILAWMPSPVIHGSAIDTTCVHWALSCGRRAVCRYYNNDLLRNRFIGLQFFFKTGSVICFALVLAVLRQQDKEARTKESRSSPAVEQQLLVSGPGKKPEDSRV
method: Uptake transporter assay, 3H-estrone sulfate uptake in HEK-293-OATP2B1 cells
recorded_conditions: IC50 OATP2B1, substrate 3H-estrone sulfate; mean ± SD of three independent experiments
value_type: pIC50
Remember, pIC50 is on a log scale: it is -log10 of the molar concentration.

Item: CCCCCCCCCCCCCCCC(=O)OC[C@H](O)[C@H]1OC(=O)C(O)=C1O [Ascorbyl palmitate (AP), Ascorbyl palmitate] | pIC50: 4.64

====

target_system: P-gp (Homo sapiens)
Construct: purchased ThermoFisher Scientific GM0015; host or cells: Sf9 membrane vesicles
Sequence (P08183 whole entry): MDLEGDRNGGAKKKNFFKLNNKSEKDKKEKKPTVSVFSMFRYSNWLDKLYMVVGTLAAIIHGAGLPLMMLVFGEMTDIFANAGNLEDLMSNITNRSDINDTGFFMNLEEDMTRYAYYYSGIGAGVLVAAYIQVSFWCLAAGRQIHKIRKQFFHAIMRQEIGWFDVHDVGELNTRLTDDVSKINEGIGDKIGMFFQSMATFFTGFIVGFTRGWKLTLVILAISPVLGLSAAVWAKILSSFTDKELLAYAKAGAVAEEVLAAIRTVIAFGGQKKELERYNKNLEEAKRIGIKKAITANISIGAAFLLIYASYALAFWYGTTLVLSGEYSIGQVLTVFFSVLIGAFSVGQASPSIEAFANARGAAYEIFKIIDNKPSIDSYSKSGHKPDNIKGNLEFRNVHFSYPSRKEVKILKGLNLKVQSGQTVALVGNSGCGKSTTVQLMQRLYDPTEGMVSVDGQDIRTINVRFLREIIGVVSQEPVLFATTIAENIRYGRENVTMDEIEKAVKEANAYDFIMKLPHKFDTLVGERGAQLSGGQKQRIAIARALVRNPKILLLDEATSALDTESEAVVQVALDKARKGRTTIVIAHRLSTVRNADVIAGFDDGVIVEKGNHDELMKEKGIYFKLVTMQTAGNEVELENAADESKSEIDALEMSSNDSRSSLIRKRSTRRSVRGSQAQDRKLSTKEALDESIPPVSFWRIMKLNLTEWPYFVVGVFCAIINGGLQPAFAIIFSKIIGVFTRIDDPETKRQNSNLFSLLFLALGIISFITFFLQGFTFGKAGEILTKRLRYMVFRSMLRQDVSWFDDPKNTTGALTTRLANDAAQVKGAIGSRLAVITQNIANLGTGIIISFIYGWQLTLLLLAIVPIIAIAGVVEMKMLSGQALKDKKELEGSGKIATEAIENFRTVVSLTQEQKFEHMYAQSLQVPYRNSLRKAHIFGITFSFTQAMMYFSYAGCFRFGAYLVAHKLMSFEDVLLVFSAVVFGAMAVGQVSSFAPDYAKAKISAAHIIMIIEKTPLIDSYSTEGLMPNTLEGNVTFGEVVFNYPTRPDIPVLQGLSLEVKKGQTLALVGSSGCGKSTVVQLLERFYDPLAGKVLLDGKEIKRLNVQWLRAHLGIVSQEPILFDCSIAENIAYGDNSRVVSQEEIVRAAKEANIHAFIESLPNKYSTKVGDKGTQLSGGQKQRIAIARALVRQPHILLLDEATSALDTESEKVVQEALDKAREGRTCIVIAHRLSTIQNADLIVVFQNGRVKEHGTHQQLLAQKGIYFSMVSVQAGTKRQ
method: Vesicular transport assay, 3H-NMQ uptake in P-gp membrane vesicles
Format: biochemical
recorded_conditions: antioxidant 200 µM; uptake with DMSO set as 100%; mean ± SD, three replicates; membrane vesicles
value_type: % Uptake of 3H-NMQ P-gp (%)
The answer is to be given in %; state only the numeric part.

Some molecules with recorded % Uptake of 3H-NMQ P-gp:
N[C@@H](Cc1c[nH]cn1)C(=O)O [Histidine]    87.6
O=S([O-])[O-].[Na+].[Na+] [Sodium sulfite]    77.7
O=S([O-])O.[Na+] [Sodium bisulfite]    96.1
C#Cc1cccc(Nc2ncnc3cc(OCCOC)c(OCCOC)cc23)c1 [Erlotinib, reference compound]    63
O=C(O)/C=C/c1ccc(O)c(O)c1 [Caffeic acid]    133.8

# input for lookup
Looking up CCCCCCCCCCCCCCCC(=O)OC[C@H](O)[C@H]1OC(=O)C(O)=C1O [Ascorbyl palmitate (AP), Ascorbyl palmitate] , I see its % Uptake of 3H-NMQ P-gp listed as 86.9

====

target_system: OATP2B1 (Homo sapiens)
method: Uptake transporter assay, 3H-estrone sulfate uptake in HEK-293-OATP2B1 cells
recorded_conditions: human, HEK-293 cells that express OATP2B1, probe 3H-estrone sulfate
value_type: inhibition at 10 min, 200 µM

Value of inhibition at 10 min, 200 µM reported for the compound CC(C)c1cc2c(c(O)c1O)[C@@]1(C(=O)O)CCCC(C)(C)[C@@H]1CC2 is ≥ 50%
